TARGET OF ASSAY: Cyclin-dependent kinase 4 (Homo sapiens)
Sequence (P11802 whole entry): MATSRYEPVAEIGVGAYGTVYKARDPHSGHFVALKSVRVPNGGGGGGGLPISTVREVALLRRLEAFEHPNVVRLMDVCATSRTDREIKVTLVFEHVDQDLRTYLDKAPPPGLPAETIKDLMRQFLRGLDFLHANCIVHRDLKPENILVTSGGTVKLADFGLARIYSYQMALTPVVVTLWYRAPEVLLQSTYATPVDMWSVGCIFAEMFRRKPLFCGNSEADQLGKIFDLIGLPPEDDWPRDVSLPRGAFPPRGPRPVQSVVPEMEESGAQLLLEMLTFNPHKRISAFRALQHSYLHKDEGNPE
PARAMETER MEASURED: IC50 (µM)
Number only, in µM; omit the unit.

Entry CC(C)c1cnn2c(NCc3ccccc3)cc(NCCCCCCN)nc12 , system Cyclin-dependent kinase 4 (Homo sapiens): what IC50 was measured? 33

====

TARGET OF ASSAY: CDK7/Cyclin H/MNAT1 (Homo sapiens, UniProt P50613)
Sequence (P51946 whole entry): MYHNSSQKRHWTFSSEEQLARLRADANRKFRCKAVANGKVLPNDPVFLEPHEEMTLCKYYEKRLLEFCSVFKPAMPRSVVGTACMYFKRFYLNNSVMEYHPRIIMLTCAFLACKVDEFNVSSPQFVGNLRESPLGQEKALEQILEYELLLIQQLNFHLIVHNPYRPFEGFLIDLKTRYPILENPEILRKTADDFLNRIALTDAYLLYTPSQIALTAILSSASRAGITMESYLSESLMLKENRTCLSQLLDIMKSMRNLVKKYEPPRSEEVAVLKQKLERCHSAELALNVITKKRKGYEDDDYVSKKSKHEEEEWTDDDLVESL
Sequence (P50613 whole entry): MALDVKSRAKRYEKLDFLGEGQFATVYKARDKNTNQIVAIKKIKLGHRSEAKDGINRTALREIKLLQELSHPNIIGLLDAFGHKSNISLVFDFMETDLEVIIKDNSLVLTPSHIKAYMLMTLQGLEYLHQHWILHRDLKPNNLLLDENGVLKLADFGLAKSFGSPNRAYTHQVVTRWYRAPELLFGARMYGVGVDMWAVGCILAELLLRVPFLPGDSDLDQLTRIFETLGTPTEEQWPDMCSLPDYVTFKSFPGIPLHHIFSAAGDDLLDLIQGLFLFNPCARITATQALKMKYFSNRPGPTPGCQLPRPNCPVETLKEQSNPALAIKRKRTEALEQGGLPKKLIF
Sequence (P51948 whole entry, further chain): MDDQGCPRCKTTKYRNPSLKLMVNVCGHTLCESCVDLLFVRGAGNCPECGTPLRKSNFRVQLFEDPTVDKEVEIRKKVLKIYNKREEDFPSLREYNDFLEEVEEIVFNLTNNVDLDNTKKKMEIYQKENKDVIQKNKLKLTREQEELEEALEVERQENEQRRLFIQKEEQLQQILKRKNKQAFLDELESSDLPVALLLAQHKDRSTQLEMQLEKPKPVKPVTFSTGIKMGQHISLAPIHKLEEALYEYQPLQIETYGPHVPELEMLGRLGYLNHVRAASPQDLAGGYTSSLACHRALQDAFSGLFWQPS
PROCEDURE SUMMARY: Competitive irreversible inhibition of CDK7/cyclinH/MAT1 (unknown origin)
PARAMETER MEASURED: EC50 (nM)
State just the number; it will be interpreted in nM.

CHEM SMILES: CN(C)C/C=C/C(=O)Nc1ccc(C(=O)N[C@H]2CCC[C@@H](Nc3ncc(Cl)c(-c4c[nH]c5ccccc45)n3)C2)cc1
TARGET OF ASSAY: CDK7/Cyclin H/MNAT1 (Homo sapiens, UniProt P50613)
UNIT LABEL: nM
EC50: 48
--
CHEM SMILES: CN(C)C/C=C/C(=O)Nc1ccc(C(=O)N[C@@]2(C)CCC[C@@H](Nc3ncc(Cl)c(-c4c[nH]c5ccccc45)n3)C2)nc1
TARGET OF ASSAY: CDK7/Cyclin H/MNAT1 (Homo sapiens, UniProt P50613)
UNIT LABEL: nM
EC50: 13

Now, please, on to the next compound.
I'd like to know its EC50. The compound in question is CN(C)C/C=C/C(=O)Nc1ccc(C(=O)N[C@H]2CCC[C@@H](Nc3ncc(Cl)c(-c4c[nH]c5ccccc45)n3)C2)nc1 4

====

PROCEDURE SUMMARY: Antiproliferative activity against imatinib-resistant human K562R-2 cells
Format: functional
PARAMETER MEASURED: pIC50
Scale explanation: pIC50 corresponds to minus log10 of a concentration expressed in moles per litre.

Look at this compound and give its reported pIC50. O=C1Nc2ccc([N+](=O)[O-])cc2/C1=C1/Nc2ccc(O)cc2/C1=N\O 6.15

====

TARGET OF ASSAY: CDK7/Cyclin H/MNAT1 (Homo sapiens)
PROCEDURE SUMMARY: Competitive irreversible inhibition of CDK7/cyclinH/MAT1 (unknown origin) in presence of 1 mM ATP
Assay type: protein-complex assay
PARAMETER MEASURED: pIC50
pIC50 field: float, defined as -log10 of concentration (mol/L).

Which pIC50 value belongs to C=CC(=O)Nc1ccc(C(=O)Nc2n[nH]c3c2CN(C(=O)N[C@H](CN(C)C)c2ccccc2)C3(C)C)cc1 ? 7.28

====

TARGET OF ASSAY: CDK9/cyclin T1 (Homo sapiens, UniProt P50750)
Sequence (O60563 whole entry): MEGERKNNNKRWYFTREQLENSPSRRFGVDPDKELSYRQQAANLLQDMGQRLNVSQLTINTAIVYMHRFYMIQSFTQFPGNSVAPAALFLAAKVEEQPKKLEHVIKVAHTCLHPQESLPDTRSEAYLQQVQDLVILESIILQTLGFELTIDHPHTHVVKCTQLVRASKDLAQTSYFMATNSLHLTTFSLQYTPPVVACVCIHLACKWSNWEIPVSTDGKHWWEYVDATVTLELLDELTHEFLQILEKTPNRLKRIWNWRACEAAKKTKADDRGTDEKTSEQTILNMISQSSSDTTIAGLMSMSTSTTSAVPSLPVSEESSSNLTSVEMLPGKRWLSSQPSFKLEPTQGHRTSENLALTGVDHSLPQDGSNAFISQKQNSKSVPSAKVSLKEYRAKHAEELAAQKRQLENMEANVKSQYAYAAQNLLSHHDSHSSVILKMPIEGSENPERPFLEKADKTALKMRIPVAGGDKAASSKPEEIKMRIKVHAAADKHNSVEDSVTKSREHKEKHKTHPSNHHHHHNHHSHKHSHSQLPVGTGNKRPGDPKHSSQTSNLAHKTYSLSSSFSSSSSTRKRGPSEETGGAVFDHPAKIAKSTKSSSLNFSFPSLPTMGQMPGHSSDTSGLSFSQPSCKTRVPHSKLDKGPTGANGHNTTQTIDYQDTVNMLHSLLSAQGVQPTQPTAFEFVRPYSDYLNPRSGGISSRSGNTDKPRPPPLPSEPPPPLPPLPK
Sequence (P50750 whole entry): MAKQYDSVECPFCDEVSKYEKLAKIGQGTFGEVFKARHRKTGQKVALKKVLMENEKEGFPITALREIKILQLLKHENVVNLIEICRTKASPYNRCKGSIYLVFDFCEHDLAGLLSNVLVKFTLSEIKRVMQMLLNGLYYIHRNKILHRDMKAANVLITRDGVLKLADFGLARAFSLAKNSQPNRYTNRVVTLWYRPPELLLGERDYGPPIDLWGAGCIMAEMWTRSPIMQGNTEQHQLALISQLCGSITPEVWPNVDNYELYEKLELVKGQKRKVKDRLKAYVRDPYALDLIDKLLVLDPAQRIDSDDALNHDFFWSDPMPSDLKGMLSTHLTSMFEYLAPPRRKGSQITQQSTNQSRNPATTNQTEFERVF
PROCEDURE SUMMARY: Competitive irreversible inhibition of CDK9/cyclin T (unknown origin) in presence of Km ATP
Assay type: protein-complex assay
Here, each record is paired with measured pIC50 data.
Worth noting: pIC50 values are minus log10 of concentrations stated in mol/L.

Record excerpt, results attached:
CHEM SMILES: CN(C)C/C=C/C(=O)Nc1ccc(C(=O)N2CCC[C@@H](Nc3ncc(Cl)c(-c4c[nH]c5ccccc45)n3)C2)cc1
TARGET OF ASSAY: CDK9/cyclin T1 (Homo sapiens, UniProt P50750)
pIC50: 6.08
--
CHEM SMILES: CN(C)C/C=C/C(=O)Nc1ccc(C(=O)N[C@H]2CCC[C@@H](Nc3ncc(Cl)c(-c4c[nH]c5ccccc45)n3)C2)nc1
TARGET OF ASSAY: CDK9/cyclin T1 (Homo sapiens, UniProt P50750)
pIC50: 6.65
--
CHEM SMILES: CN(C)C/C=C/C(=O)Nc1ccc(C(=O)N[C@@]2(C)CCC[C@@H](Nc3ncc(Cl)c(-c4c[nH]c5ccccc45)n3)C2)nc1
TARGET OF ASSAY: CDK9/cyclin T1 (Homo sapiens, UniProt P50750)
pIC50: 6.04

What value of pIC50 has been reported for the following compound? CN(C)C/C=C/C(=O)Nc1ccc(C(=O)N[C@H]2CCC[C@@H](Nc3ncc(Cl)c(-c4c[nH]c5ccccc45)n3)C2)cc1 6.20
